Task for the reader: assign each of the following compounds its reported Percent Effect.
- System: Mycobacterium tuberculosis
- measurement notes: Cornell M. t heat shock assay; further: in the data most compounds retested in dose-response had high values
- Format: functional, organism-based
- Parameters: dose or concentration left out as unconfirmed
Screen size: about 69,000 compounds; about 950 (1.4%) showed an effect of 50% or more. The list comes from a sample in which strong results are over-represented; it also holds close analogues and randomly drawn compounds.
Write down the numeric answer in % and omit the unit.

Task item: State the measured Percent Effect (Mycobacterium tuberculosis) of `Cc1ccc(CN2CCC3(CC2)COCCN3S(C)(=O)=O)o1.O=C(O)C(F)(F)F`
Reply: 38.18

Task item: State the measured Percent Effect (Mycobacterium tuberculosis) of Cc1ccc(C(C)N(C)Cc2nc3c(cnn3C)c(=O)[nH]2)cc1 (configuration not stated)
Reply: 36.86

Task item: State the measured Percent Effect (Mycobacterium tuberculosis) of `O=C(NCCCNc1ccc(C(F)(F)F)cn1)c1ccccc1`
Reply: 26.28

Task item: State the measured Percent Effect (Mycobacterium tuberculosis) of Cn1ncc2c1CN(Cc1cccnc1)CC2COCC1CC1.O=C(O)C(F)(F)F.O=C(O)C(F)(F)F.O=C(O)C(F)(F)F (configuration not stated)
Reply: -6.244

Task item: State the measured Percent Effect (Mycobacterium tuberculosis) of `N#Cc1ccc(NCCNc2ccc(C(F)(F)F)cn2)nc1`
Reply: 51.52

Task item: State the measured Percent Effect (Mycobacterium tuberculosis) of Cc1ccc(C(C)N(C)Cc2nc3c(cnn3C)c(=O)[nH]2)c(C)c1 (configuration not stated)
Reply: -15.24

Task item: State the measured Percent Effect (Mycobacterium tuberculosis) of `Cc1cccc(CN2CC[C@@H]3[C@@H]2CCN3Cc2cccs2)n1.O=C(O)C(F)(F)F.O=C(O)C(F)(F)F`
Reply: -14.73

Task item: State the measured Percent Effect (Mycobacterium tuberculosis) of `O=C(O)C(F)(F)F.O=C(O)C(F)(F)F.c1cncc(-c2ncnc3c2CCN(Cc2cccs2)CC3)c1`
Reply: -18.81

Task item: State the measured Percent Effect (Mycobacterium tuberculosis) of `O=C(O)C(F)(F)F.O=C(c1ccc[nH]1)N1CCc2onc(COc3cccnc3)c2C1`
Reply: 7.093

Task item: State the measured Percent Effect (Mycobacterium tuberculosis) of `CCC1=N[C@@]2(CC[C@@H]3CN(Cc4ccccc4C)C[C@@H]32)C(=O)N1C.O=C(O)C(F)(F)F`
Reply: -3.912

Task item: State the measured Percent Effect (Mycobacterium tuberculosis) of `CC(=O)N1CCC2(CC1)CNc1c(F)cccc12.Cl`
Reply: 12.35

Task item: State the measured Percent Effect (Mycobacterium tuberculosis) of Cc1nc(Cn2c3c(ccc2=O)CC(NC(C)C)CC3)cs1.O=C(O)C(F)(F)F.O=C(O)C(F)(F)F (configuration not stated)
Reply: 34.33

Task item: State the measured Percent Effect (Mycobacterium tuberculosis) of `CC(C)c1nnc(N2C[C@@H]3CC[C@H](C2)N(Cc2ccccc2)C3)s1`
Reply: 34.82

Task item: State the measured Percent Effect (Mycobacterium tuberculosis) of `Cc1ccc(C(=O)N2Cc3c(CN4CCCCC4)nn(C)c3C2)cc1F.O=C(O)C(F)(F)F`
Reply: -32.35

Task item: State the measured Percent Effect (Mycobacterium tuberculosis) of `O=C(Cc1ccccn1)N1CCN2C[C@H](Oc3cncnc3)C[C@H]2C1.O=C(O)C(F)(F)F.O=C(O)C(F)(F)F`
Reply: 3.514

Task item: State the measured Percent Effect (Mycobacterium tuberculosis) of `CC(C)CN(Cc1nc2c(cnn2C)c(=O)[nH]1)C(C)C`
Reply: 9.965

Task item: State the measured Percent Effect (Mycobacterium tuberculosis) of `Cn1cnc(S(=O)(=O)N2CCOCC2)c1Cl`
Reply: -1.938

Task item: State the measured Percent Effect (Mycobacterium tuberculosis) of CN1CCOC(CNCc2csc(C3CCCCC3)n2)C1 (configuration not stated)
Reply: -18.06

Task item: State the measured Percent Effect (Mycobacterium tuberculosis) of `N#CC1(C(=O)NCCCNc2ccc(C(F)(F)F)cn2)CCCC1`
Reply: 102.8

Task item: State the measured Percent Effect (Mycobacterium tuberculosis) of `N#Cc1ccc(C(=O)NCCCNc2ccc(C(F)(F)F)cn2)cc1`
Reply: 28.89

Task item: State the measured Percent Effect (Mycobacterium tuberculosis) of Cc1ccc(C(C)N(C)Cc2nc3c(cnn3C)c(=O)[nH]2)s1 (configuration not stated)
Reply: 59.53

Task item: State the measured Percent Effect (Mycobacterium tuberculosis) of `Cc1ccc(CN(Cc2nc3c(cnn3C)c(=O)[nH]2)C(C)C)s1`
Reply: -2.161

Task item: State the measured Percent Effect (Mycobacterium tuberculosis) of O=C(c1cnc(-c2ccccn2)s1)N1CCCC(n2cccn2)C1 (configuration not stated)
Reply: -7.844

Task item: State the measured Percent Effect (Mycobacterium tuberculosis) of CC(c1ccccc1Cl)N(C)Cc1nc2c(cnn2C)c(=O)[nH]1 (configuration not stated)
Reply: -6.582

Task item: State the measured Percent Effect (Mycobacterium tuberculosis) of Cc1nc(CNCC2CN(C)CCO2)cs1 (configuration not stated)
Reply: -7.018

Task item: State the measured Percent Effect (Mycobacterium tuberculosis) of CCCn1cnnc1CNC(=O)C1COc2cc(OC)ccc2C1 (configuration not stated)
Reply: -11.02

Task item: State the measured Percent Effect (Mycobacterium tuberculosis) of `Cn1cc(-c2csc(N3CCCCCC3)n2)cn1`
Reply: 70.2

Task item: State the measured Percent Effect (Mycobacterium tuberculosis) of `O=C(O)C(F)(F)F.c1cnc(N2CCO[C@H]3[C@H](OCC4CCOCC4)CC[C@@H]32)nc1`
Reply: 52.27

Task item: State the measured Percent Effect (Mycobacterium tuberculosis) of COCC1Cn2nnc(-c3cnn(C)c3)c2CN1Cc1cccs1.O=C(O)C(F)(F)F (configuration not stated)
Reply: 17.22

Task item: State the measured Percent Effect (Mycobacterium tuberculosis) of `Cc1[nH]c2ccc(Cl)cc2c1CCNc1ncnc2c1CCNC2`
Reply: 96.99

Task item: State the measured Percent Effect (Mycobacterium tuberculosis) of Cn1ncc2c1CN(Cc1ccccc1F)CC2COCC1CC1.O=C(O)C(F)(F)F.O=C(O)C(F)(F)F (configuration not stated)
Reply: 103.1

Task item: State the measured Percent Effect (Mycobacterium tuberculosis) of `Cc1cc(NCCNc2ccc(C#N)cn2)nc(C)n1`
Reply: -18.17

Task item: State the measured Percent Effect (Mycobacterium tuberculosis) of COc1ccc(F)c(CN2CCCC3(CCN(C4CCOCC4)C3)C2)c1 (configuration not stated)
Reply: 99.36

Task item: State the measured Percent Effect (Mycobacterium tuberculosis) of `CN1CCN(c2nc(-c3cnn(C)c3)cs2)CC1`
Reply: -2.615

Task item: State the measured Percent Effect (Mycobacterium tuberculosis) of `CN(C)S(=O)(=O)N1C[C@H]2C[C@H](C(=O)NCc3ccccc3)[C@@H](C1)O2`
Reply: -32.32

Task item: State the measured Percent Effect (Mycobacterium tuberculosis) of Cc1nc(CN2C(=O)COC3(CCN(Cc4ccsc4)CC3)C2C)cs1.O=C(O)C(F)(F)F (configuration not stated)
Reply: -25.28

Task item: State the measured Percent Effect (Mycobacterium tuberculosis) of CCCn1cnnc1CNC(=O)C1COc2ccc(OC)cc2C1 (configuration not stated)
Reply: -18.38

Task item: State the measured Percent Effect (Mycobacterium tuberculosis) of CN1CCOC(CNCc2csc(C3CCCC3)n2)C1 (configuration not stated)
Reply: 51.17

Task item: State the measured Percent Effect (Mycobacterium tuberculosis) of Cn1nnc2c1CCN(Cc1nccs1)C2COCc1ccccc1.O=C(O)C(F)(F)F (configuration not stated)
Reply: 7.839

Task item: State the measured Percent Effect (Mycobacterium tuberculosis) of `COc1cc(CN2CCn3c(CO)nnc3C2)ccc1OC(C)C.O=C(O)CC(O)(CC(=O)O)C(=O)O`
Reply: -10.49

Task item: State the measured Percent Effect (Mycobacterium tuberculosis) of `Cc1[nH]c2ccccc2c1CCNc1ncnc2c1CCNCC2`
Reply: 1.152

Task item: State the measured Percent Effect (Mycobacterium tuberculosis) of Cc1ccccc1C(C)N(C)Cc1nc2c(cnn2C)c(=O)[nH]1 (configuration not stated)
Reply: -10.61
